Below: a set of entries, each annotated with reported Kd.
Target: T1, EsCas13d, nuclease-dead (Eubacterium siraeum, UniProt B0MS50, R295A;H300A;R849A;H854A)
T1 sequence: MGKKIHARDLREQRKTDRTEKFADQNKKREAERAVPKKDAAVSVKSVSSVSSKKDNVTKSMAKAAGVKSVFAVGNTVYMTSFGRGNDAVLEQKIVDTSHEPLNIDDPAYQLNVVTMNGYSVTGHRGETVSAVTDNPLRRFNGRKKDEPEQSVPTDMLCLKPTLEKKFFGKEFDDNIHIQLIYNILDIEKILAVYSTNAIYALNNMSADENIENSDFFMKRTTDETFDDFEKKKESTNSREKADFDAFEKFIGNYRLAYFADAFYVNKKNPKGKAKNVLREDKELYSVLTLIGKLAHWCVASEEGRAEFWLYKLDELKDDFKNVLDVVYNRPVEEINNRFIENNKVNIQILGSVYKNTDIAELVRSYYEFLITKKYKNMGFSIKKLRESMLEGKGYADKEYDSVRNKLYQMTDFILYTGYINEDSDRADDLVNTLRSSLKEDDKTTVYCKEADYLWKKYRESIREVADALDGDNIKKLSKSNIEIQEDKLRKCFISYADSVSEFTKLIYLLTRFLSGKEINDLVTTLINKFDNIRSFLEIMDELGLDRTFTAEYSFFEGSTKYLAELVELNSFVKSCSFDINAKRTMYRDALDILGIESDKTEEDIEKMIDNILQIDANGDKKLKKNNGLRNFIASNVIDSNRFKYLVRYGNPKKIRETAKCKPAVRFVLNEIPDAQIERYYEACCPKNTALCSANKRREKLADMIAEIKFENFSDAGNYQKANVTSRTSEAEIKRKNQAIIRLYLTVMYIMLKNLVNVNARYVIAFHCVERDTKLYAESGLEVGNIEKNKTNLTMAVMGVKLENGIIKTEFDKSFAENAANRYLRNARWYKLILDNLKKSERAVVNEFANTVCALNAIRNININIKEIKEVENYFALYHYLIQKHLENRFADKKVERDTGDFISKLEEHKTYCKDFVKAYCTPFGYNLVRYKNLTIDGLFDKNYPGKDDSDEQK
Test: crRNA (strand 1, pre-loaded); Mg2+; 40 mM Tris-HCl pH 7.5, 150 mM NaCl, 6 mM MgCl2, 1 mM DTT, 0.1% Tween-20, 0.2 mg/ml BSA; 25 C; 10 min per concentration, then washed
Conditions: tags: His6-TwinStrep-SUMO cleaved; N-terminal SNAP kept (SNAP-Surface 488); label: 3' end held by stalled T7 RNA polymerase
Entry rule: numbers only, all in nM.

binder: target 2 MT 5'PFS GGA 3'PFS CGG (mixed) RNA 1: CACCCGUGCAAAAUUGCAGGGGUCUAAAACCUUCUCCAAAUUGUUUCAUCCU RNA 2: GGGAAUGGAUCCACAUCUACGAAUUCGGAAGGAUGAAACAAUUUGGAGAAGCGGAGAUCGGAAGAGCACACGU
result: 9.8

The value of Kd measured for the binder target 2 MT 5'PFS AAA 3'PFS UCG (mixed) RNA 1: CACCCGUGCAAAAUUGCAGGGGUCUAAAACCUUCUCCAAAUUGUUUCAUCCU RNA 2: GGGAAUGGAUCCACAUCUACGAAUUCAAAAGGAUGAAACAAUUUGGAGAAGUCGAGAUCGGAAGAGCACACGU turned out to be 4.9

The value of Kd measured for the binder target 1 C2A,C6A (mixed) RNA 1: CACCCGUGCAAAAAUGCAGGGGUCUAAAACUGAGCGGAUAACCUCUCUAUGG RNA 2: GGGAAUGGAUCCACAUCUACGAAUUCGUACCAUAGAGAGGUUAUCAGCUAACCGAGAUCGGAAGAGCACACGU turned out to be 4.84

The value of Kd measured for the binder target 1 insC 3' of 5,insG 3' of 1 (mixed) RNA 1: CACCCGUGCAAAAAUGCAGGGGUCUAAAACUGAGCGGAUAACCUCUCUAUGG RNA 2: GGGAAUGGAUCCACAUCUACGAAUUCGUACCAUAGAGAGGUUAUCCGCCUCAGCCGAGAUCGGAAGAGCACACGU turned out to be 8.4
